Hey, just so you know, these numbers are from ChEMBL document CHEMBL1137975.

Listed molecules paired with reported MIC
Tested on: Enterococcus faecalis
Assay: Minimum inhibitory concentration in mice against antimicrobial activity in vancomycin-sensitive Enterococcus faecalis (VSEF 29212).
Report only the number, with the unit µg/mL understood.

{"test_smiles": "Cn1cc(NC(=O)c2cc(NC(=O)c3cc(NC(=O)c4sccc4Cl)nn3C)cn2C)cc1C(=O)NCCN1CCOCC1", "measured_on": "Enterococcus faecalis", "endpoint": "MIC", "quantitative_readout": 8}
{"test_smiles": "Cn1cc(NC(=O)c2ccc(NC(=O)c3cc(NC(=O)c4cc5cc6c(cc5cn4)OCO6)cn3C)cc2)cc1C(=O)NCCN1CCOCC1", "measured_on": "Enterococcus faecalis", "endpoint": "MIC", "quantitative_readout": 0.5}
{"test_smiles": "Cn1cc(NC(=O)c2cc(NC(=O)c3cc(NC(=O)c4cc5ccccc5cn4)c[nH]3)cn2C)cc1C(=O)NCCN1CCOCC1", "measured_on": "Enterococcus faecalis", "endpoint": "MIC", "quantitative_readout": 0.5}
{"test_smiles": "Cn1cc(NC(=O)c2ccc(NC(=O)c3cc(NC(=O)c4ccc(F)cc4F)cn3C)cc2)cc1C(=O)NCCN1CCOCC1", "measured_on": "Enterococcus faecalis", "endpoint": "MIC", "quantitative_readout": 8}
{"test_smiles": "Cn1cc(NC(=O)c2cc(NC(=O)c3cc(NC(=O)c4cc5ccccc5cn4)cn3C)nn2C)cc1C(=O)NCCN1CCOCC1", "measured_on": "Enterococcus faecalis", "endpoint": "MIC", "quantitative_readout": 1}

Recorded MIC for Cn1cc(NC(=O)c2ccc(NC(=O)c3cc(NC(=O)c4nccc5ccccc45)cn3C)cc2)cc1C(=O)NCCN1CCOCC1 , please?
2

Recorded MIC for Cn1cc(NC(=O)c2sccc2Cl)cc1C(=O)Nc1cc(C(=O)Nc2c[nH]c(C(=O)NCCN3CCOCC3)c2)n(C)c1 , please?
32

Recorded MIC for Cn1cc(NC(=O)c2cc(NC(=O)CCNC(=O)c3cc4ccccc4cn3)cn2C)cc1C(=O)NCCN1CCOCC1 , please?
16

Recorded MIC for Cn1cc(NC(=O)c2ccc(NC(=O)c3cc(NC(=O)c4ccncn4)cn3C)cc2)cc1C(=O)NCCN1CCOCC1 , please?
32

Recorded MIC for Cn1cc(NC(=O)c2cc(NC(=O)c3cc(NC(=O)c4cc5ccccc5cn4)on3)cn2C)cc1C(=O)NCCN1CCOCC1 , please?
0.5
